species on record: Cavia porcellus; experiment: Dissociation constant of the drug-receptor complex was measured in guinea pig urinary bladder; assay type: functional
measured_metric: Kd (µM)
Enter your answer as a number in µM; do not include the unit.

# Kd of C[S+](C)CC#CCN1C(=O)CCC1=O.[Cl-] = 5.9

# Kd of O=C1CCCN1CC#CC[S+]1CCCC1.[Cl-] = 1.1

# Kd of O=C1CCC(=O)N1CC#CC[S+]1CCCC1.[Cl-] = 13.1

# Kd of C[N+](C)(C)CC#CCN1CCCC1=O.[I-] [OXOTREMORINE METHIODIDE] = 4.3

# Kd of C[S+](C)CC#CCN1CCCC1=O.[Cl-] = 1.3

---

target: Muscarinic acetylcholine receptor (Rattus norvegicus) (UniProt P08482+P08483+P08485+P08911+P10980); experiment: Percentage of high affinity sites was determined in rat cerebral cortex; type: tissue-based
Exercise: for every item that follows, state its recorded Binding.
Enter your answer as a number in %; do not include the unit.

# Binding of O=C1CCCN1CC#CC[S+]1CCCC1.[Cl-] = 37

# Binding of C[N+](C)(C)CC#CCN1CCCC1=O.[I-] [OXOTREMORINE METHIODIDE] = 31.3

# Binding of C[S+](C)CC#CCN1CCCC1=O.[Cl-] = 28.4

# Binding of C[S+](C)CC#CCN1C(=O)CCC1=O.[Cl-] = 27.4

---

species on record: Cavia porcellus; experiment: In vitro muscarinic activity was measured on isolated guinea pig ileum; type: functional
Exercise: for every item that follows, state its recorded pEC50.
The quantity pEC50 is defined as the negative base-10 logarithm of the molar concentration.

# pEC50 of C[N+](C)(C)CC#CCN1CCCC1=O.[I-] [OXOTREMORINE METHIODIDE] = 7.64

# pEC50 of C[S+](C)CC#CCN1CCCC1=O.[Cl-] = 7.54

# pEC50 of O=C1CCC(=O)N1CC#CC[S+]1CCCC1.[Cl-] = 5.10

# pEC50 of C[S+](C)CC#CCN1C(=O)CCC1=O.[Cl-] = 6.39

# pEC50 of O=C1CCCN1CC#CC[S+]1CCCC1.[Cl-] = 6.60

---

test: Acute toxicity was measured in mice; assay type: organism-based; conditions: mouse, in vivo
measured_metric: LD50 (µmol/kg)
Enter your answer as a number in µmol/kg; do not include the unit.

# LD50 of O=C1CCCN1CC#CC[S+]1CCCC1.[Cl-] = 2.2

# LD50 of C[S+](C)CC#CCN1C(=O)CCC1=O.[Cl-] = 70

# LD50 of C[S+](C)CC#CCN1CCCC1=O.[Cl-] = 2.8

# LD50 of C[N+](C)(C)CC#CCN1CCCC1=O.[I-] [OXOTREMORINE METHIODIDE] = 1

# LD50 of O=C1CCC(=O)N1CC#CC[S+]1CCCC1.[Cl-] = 3.5

---

Exercise: for every item that follows, state its recorded KH.
molecular target: Muscarinic acetylcholine receptor (Rattus norvegicus) (UniProt P08482+P08483+P08485+P08911+P10980); assay: High affinity dissociation constant to Muscarinic acetylcholine receptor in rat cerebral cortex; assay type: tissue-based
Enter your answer as a number in µM; do not include the unit.

# KH of O=C1CCCN1CC#CC[S+]1CCCC1.[Cl-] = 0.069

# KH of C[N+](C)(C)CC#CCN1CCCC1=O.[I-] [OXOTREMORINE METHIODIDE] = 0.019

# KH of C[S+](C)CC#CCN1CCCC1=O.[Cl-] = 0.011

# KH of C[S+](C)CC#CCN1C(=O)CCC1=O.[Cl-] = 0.19
